Kindly supply the reported differential viability (reversal) values for the records listed here.
PROTOCOL TEXT: reversal of MRP1-mediated doxorubicin resistance, pilot screen, H69AR cells, doxorubicin co-treatment (AID 601)
RECORDED CONDITIONS: H69AR cells + 2 uM doxorubicin, CellTiter-Glo, 72 h; at 10 µM; active compounds read high
The answer is to be given in %; state only the numeric part.

Qu. Field request: differential viability (reversal) | item: CCOC(=O)N1CCN(C(=O)c2cn(CC)c3cc(N4CCN(C)CC4)c(F)cc3c2=O)CC1
Ans. 1.33

Qu. Suppose we examine the compound CSc1c(C#N)c(N)c(C#N)c2c1COC(C)(C)C2 ; what differential viability (reversal) value has been reported?
Ans. -1.11

Qu. I'd like to know its differential viability (reversal). The compound in question is Cn1c(=O)cc(OCCCC(=O)Nc2ccc3c(c2)OCCO3)c2ccccc21
Ans. -5.2

Qu. Consider the compound shown here: Cn1c(Cc2cccs2)nnc1SCC(=O)N1CCc2ccccc21 What is its recorded differential viability (reversal)?
Ans. -9.72

Qu. differential viability (reversal) lookup needed for CN(C)CCCN1c2ccccc2Sc2ccc(Cl)cc21 , thanks.
Ans. -26.7

Qu. Look up differential viability (reversal) for this compound: CC1CN(C(=O)CSc2ncnc3sccc23)CC(C)O1 (centres undefined)
Ans. -2.15

Qu. Give the measured differential viability (reversal) of CCN(C(C)=O)c1nnc(CSc2nc3ccccc3s2)s1 .
Ans. 13.3

Qu. Quick one: differential viability (reversal) of OC(CN1CCN(c2ccccc2)CC1)c1ccc2c(c1)CCN2 (centres undefined) ?
Ans. -26

Qu. Name the recorded differential viability (reversal) for CCOC(=O)c1sc2cccc(F)c2c1N .
Ans. 5.58

Qu. Fill in the blank: the reported differential viability (reversal) of COc1ccc2c(c1)c(CC(=O)O)c(C)n2C(=O)c1ccc(Cl)cc1 is ____.
Ans. 3.25

Qu. Give its differential viability (reversal) value. Item: CCOC(=O)c1cc(-c2nnc(-c3ccc(Oc4ccccc4)cc3)o2)c(C)nc1C
Ans. 16.7

Qu. Reported differential viability (reversal), compound COc1ccccc1-c1nc(SCc2ccccn2)n[nH]1 : ____
Ans. 5.32

Qu. Need differential viability (reversal) of N#Cc1c(-c2ccccc2)nc(N2CCCCCC2)[nH]c1=O , thanks.
Ans. -3.53

Qu. Sample COc1ccccc1OCCOCCn1cnc2ccccc2c1=O — what was its differential viability (reversal)?
Ans. -3.44

Qu. Could you share which differential viability (reversal) value was measured for CC(CN1c2ccccc2Sc2ccccc21)N(C)C (centres undefined) ?
Ans. 4.55

Qu. Which differential viability (reversal) value is on record for NNC(=O)c1ccncc1 ?
Ans. 10.2

Qu. differential viability (reversal) lookup needed for O=C1c2ccccc2C(=O)N1CCCn1nnc(-c2ccc(N3CCOCC3)cc2)n1 , thanks.
Ans. 0.795

Qu. What measured differential viability (reversal) goes with CC1CCN(C(=O)c2cc(-c3ccc(Cl)c(Cl)c3)on2)CC1 ?
Ans. 10.5

Qu. Looking for the measured differential viability (reversal) of Cc1cccc(NC(=O)CSc2nnc(-c3ccccc3C)o2)c1 , can you help?
Ans. 3.35

Qu. Return reported differential viability (reversal); argument: CSc1ccccc1NC(=O)CN(c1ccccc1)S(=O)(=O)N(C)C
Ans. 2.04

Qu. Can you look up the measured differential viability (reversal) of CCOC(=O)N1CCC(N(C(=O)Nc2ccc(Cl)c(Cl)c2)C(C)CC)CC1 (centres undefined) for me?
Ans. 4.27

Qu. Requested field: differential viability (reversal). Item: Cc1nc(C)c(C(=O)OCC(=O)N2CCN(c3ccccc3)CC2)s1
Ans. 7.64

Qu. Reported differential viability (reversal) for Fc1ccc(C(c2ccc(F)cc2)N2CCN(C/C=C/c3ccccc3)CC2)cc1 : what is it?
Ans. -5.65

Qu. # query: differential viability (reversal) of entry O=C(Nc1cc(C(F)(F)F)ccc1N1CCCC1)c1ccc2c(c1)OCO2
Ans. 0.92
